assay-system: T1, Macaca fascicularis CD276 (Macaca fascicularis)
T1 construct: whole, on cells; also called cynomolgus monkey CD276; cynoCD276
method-notes: FACS on CHO-S-cynoCD276 cells
reported-endpoint: FACS MFI
Numbers only.

Here is how some binders turned out for FACS MFI.
6-F3-G2-G1 (antibody, V domains shown, mouse monoclonal antibody (hybridoma)) VH: QVQLQQPGAELVKPGASVKLSCKASDYTFTNYWMHWVKQRPGQGLEWIGMIHPNSGTTSYNEKFKNKATLTVDTSSATTYMHLSSLTSEDSAVYYCASHYGNSYSAMDYWGQGTSVTVSS VL: QAVVTQESALTTSPGGTVILTCRSSTGAVTTSNYANWVQEKPDHLFTGLIGGTSNRAPGVPVRFSGSLIGDKAALTITGAQTEDDAMYFCALWYSTHYVFGGGTKVTVL : 114000
30-C7-C11-D4 (antibody, V domains shown, mouse monoclonal antibody (hybridoma)) VH: EVQLVESGPGLVKPSQSLSLTCTVTGYSITSDYAWNWIRQFPGNKLEWMGYISHSGSTSYNPSLKSRISITRDTSKNQFFLQLNSVTTEDTATYYCARSLGRRWYFDVWGAGTTVTVSS VL: DIVMTQSPSSLAMSVGQKVTLSCKSSQSLLNSSTQKNYLAWYQQKPGQSPKLLVYFASTRDSGVPDRFIGSGSGTEFTLTISSVQAEDLADYFCQQHYIIPFTFGAGTKLEIK : 96300
25-D3-G4-C6 (antibody, V domains shown, mouse monoclonal antibody (hybridoma)) VH: EIQLQQTGPELVKPGASVKISCKASGYSFTDYIILWVKQSHGMSLEWIGNINPYYNSTYYNLKFKGKATLTVDKSSSTAYMQLDSLTSEDSAVYYCARDSFDWYFGVWGAGTTVTVSS VL: DVVMTQTPLSLPVSLGDQASISCRSSQSLVHSNGNTYLHWYLQKPGQSPKLLIYKVSNRFSGVPDRFSGSGSGTDFTLKISRVETEDLGIYFCSQSTHVPPLTFGAGTKLELK : 5390
27-F8-E10-E11 (antibody, V domains shown, mouse monoclonal antibody (hybridoma)) VH: EVQLQQSGPELVKPGASVKISCKTSGYTFTEYAMHWVKQSHGKILEWIGGINPNIGGTTYNQKFKDKATLTVDKSSSTASMELRSLTSEDSAVYYCARFLVPSTEGFTYWGQGTLVTVSA VL: QIVLTQSPAIMSASPGEKVTMTCSASSSVSYMHWYQQKSGTSPKRWIYDTSRVASGVPARFSGSGSGTSYSLTISSMEAEDAATYYCQQWSSNPLTFGAGTKLELK : 80500
16-C6-F7-F5 (antibody, V domains shown, mouse monoclonal antibody (hybridoma)) VH: QIQLVQSGPEVKKPGETVKISCKASGYTFTKYGINWVKQAPGEGLKWMGWIWTYTGKPTYGDDFKGRFAFSLETSASTAYLQISDLKIEDMATYFCARDDGYYYTMNYWGQGTSVTVSS VL: DIVMTQTPLSLPVSLGDQASISCRSSQSLLHTNGDTYLHWYLQKAGQPPKLLIYKVSNRFSGVPDRFSGSGSGTDFTLKISRVEAEDLGVYFCSQSTHIPWTFGGGTKLEIK : 19500
11-G10-B4-B11 (antibody, V domains shown, mouse monoclonal antibody (hybridoma)) VH: DVQLQESGPGLVKPSQSLSLTCTVTGYSITSDYAWNWIRQFPGNKLEWMGYISYSGSTSYNPSLKSRISITRDTSKNQFFLQLNSVTTEDTATYYCARGGPWFAYWGQGTLVTVSA VL: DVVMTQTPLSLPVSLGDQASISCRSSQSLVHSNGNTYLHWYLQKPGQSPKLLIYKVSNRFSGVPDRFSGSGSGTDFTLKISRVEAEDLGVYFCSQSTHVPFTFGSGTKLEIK : 26400
7-E1-F8-F6 (antibody, V domains shown, mouse monoclonal antibody (hybridoma)) VH: QVQLQQSGPELVKPGASVQMSCKASGYTFTDYVISWVNQRTGQGLEWIGEIYPRSGNTYYNEKFKGKATLTADKSSNTAYMQLSSLTSEDSAVYFCARFDIAYSFDYWGQGTTLTVSS VL: DVVMTQTPLSLPVSLGDQASISCRSTQSLVHSNGVTYLHWYLQKPGQSPKLLIYKVSNRFSGVPDRFSGSGSGTDFTLKISRVEAEDLGVYFCSQGTHVPWTFGGGTKLEIK : 5590
3-G7-D8-D3 (antibody, V domains shown, mouse monoclonal antibody (hybridoma)) VH: QVQLQQSGAELARPGTSVKLSCKASGYTFTTYWIQWVKQRPGQGLEWIGAIYPGDGDTRYTQKFKGKATLTADKSSSTAYMQLSTLASEDSAVYYCARPYDGYYIDYPMDSWGQGTSVTVSS VL: QIVLTQSPAIMSASPGEKVTMTCSASSRINYMHWYQQKPGTSPIIWIYDTSKLASGVPARFSGSGSGTSYSLTISSMEAEDAATYYCHQRSSYPFTFGSGTKLEIK : 6420

List the reported FACS MFI of each binder below.
1. 16-G3-D10-C10 (antibody, V domains shown, mouse monoclonal antibody (hybridoma)) VH: QIQLVQSGPELKKPGETVKISCKASGYTFRNYGMNWVKQGPGKDLKWMGWINPYTGEPTYIGDFKGRFAFSLETSANSAYLQINNLNNEDMATYFCARDDGYWYTMDYWGQGTSVTVSS VL: DVVMTQTPPSLPVSLGDQASIPCRSSQSLVHSNGITYLHWYLQKPGQSPKLLIYKVSNRFSGVPDRFSGSGSGTDFTLKISRVEAEDLGVYFCSQSTHVPWTFGGGTKLEIK
2. 6-D8-E7-A11 (antibody, V domains shown, mouse monoclonal antibody (hybridoma)) VH: QVHLQQPGAELVKPGASVKLSCKASGYTFTNYWMHWVKRRPGQGLEWIGMIHPNSGTTSFNEKFKSKATLTVDKSSSTAYMQLSSLTSEDSAVYYCAGYYGSSFSWFTYWGQGTLVTVSA VL: QAVVTQESALTTSPGGTVILTCRSSTGAVTTSNFANWVQEKPDHLFTGLIGGTSNRAPGVPVRFSGSLIGDKAALTITGAQTEDDAMYFCALWYSTHYVFGGGTKVTVL

Output:
1. 6190
2. 101000
